- Tested on: PLK1
- RECORDED_CONDITIONS: concentration: 1 μM,replicates: in singlicate; n = 1;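 note: KINOMEscan kinase panel screen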
Readings of %Inh for the listed compounds

In [3]: df
Out[3]:
                                   compound  target_under_test  value_measured
0  CS(=O)c1ccc(-c2coc3ccc(-c4n[nH]c(=O)o4)cc23)cc1 (centres unmarked)               PLK1              6%
1  Cl.Cl.NC[C@H](CC1CCCCC1)NC(=O)c1ccc(-c2ccnc3[nH]ccc23)s1               PLK1              2%
2  Cn1ccc2ncnc(Oc3ccc(NC(=O)Nc4cccc(C(F)(F)F)c4)c(Cl)c3)c21               PLK1              0%
3  COC(=O)c1cccc(NC(=O)NC2CCN(c3ccnc(NCc4ccc(F)cc4)n3)CC2)c1               PLK1              0%
4  Cn1ccc2ncnc(Oc3ccc(NC(=O)Nc4cnn(C(C)(C)C)c4)c(Cl)c3)c21               PLK1              0%
5  O=C(Nc1cccc(Oc2ccc3nccn3n2)c1)Nc1cccc(C(F)(F)F)c1               PLK1             38%

Ask: Please list %Inh recorded for the compound Cl.Nc1n[nH]c2cc(-c3ccccn3)ccc12
Reply: 0%

Ask: Please list %Inh recorded for the compound Cc1nnc(-c2ccc3occ(-c4ccc(S(C)=O)cc4)c3n2)o1 (centres unmarked)
Reply: 0%

Ask: Please list %Inh recorded for the compound CN(c1ccccc1CNc1nc(Nc2ccc3c(c2)CC(=O)N3)ncc1C(F)(F)F)S(C)(=O)=O
Reply: 0%

Ask: Please list %Inh recorded for the compound CC(C)c1nc(-c2cccc(NS(=O)(=O)c3ccccc3)c2)c(-c2ccnc(Nc3ccc4c(c3)CN(C)CC4)n2)s1
Reply: 0%

Ask: Please list %Inh recorded for the compound COc1cc2nccc(Nc3ccc(Oc4ccccc4)cc3)c2cc1OC.Cl
Reply: 0%

Ask: Please list %Inh recorded for the compound OCCn1cc(-c2cnc3nnn(Cc4ccc5ncccc5c4)c3n2)cn1
Reply: 0%

Ask: Please list %Inh recorded for the compound C[C@@H]1CNc2c(sc3ccc4nc(-c5ccc(O)cc5)ccc4c23)C(=O)N1
Reply: 0%

Ask: Please list %Inh recorded for the compound N#Cc1cccc(C(=O)NC2CCN(c3ccnc(Nc4ccc(F)cc4)n3)C2)c1 (centres unmarked)
Reply: 0%

Ask: Please list %Inh recorded for the compound COc1cc2c(Nc3ccc(NC(=O)c4ccccc4)cc3)ncnc2cc1OCCCN1CCOCC1
Reply: 0%

Ask: Please list %Inh recorded for the compound CC(=O)Nc1ccc(-c2cc3ncnc(SCC(=O)O)c3s2)cc1
Reply: 0%

Ask: Please list %Inh recorded for the compound CCn1c(-c2nonc2N)nc2cncc(CNC3CCNCC3)c21.Cl
Reply: 0%

Ask: Please list %Inh recorded for the compound Cc1ccc(CC(=O)N2CCc3cc(-c4cn(C)c5ncnc(N)c45)ccc32)cc1
Reply: 7%

Ask: Please list %Inh recorded for the compound NC(=O)Nc1sc(-c2ccc(F)cc2)cc1C(N)=O
Reply: 37%

Ask: Please list %Inh recorded for the compound CS(=O)(=O)Nc1ccc(-c2ccnc3[nH]ccc23)cc1
Reply: 0%

Ask: Please list %Inh recorded for the compound C[C@@H]1CCN(C(=O)N2CCCC2)C[C@@H]1N(C)c1ncnc2[nH]ccc12
Reply: 0%

Ask: Please list %Inh recorded for the compound O=C(Nc1cccc(C(F)(F)F)c1)c1cccc(Oc2ccc3nccn3n2)c1
Reply: 50%

Ask: Please list %Inh recorded for the compound CNC(=O)c1ccccc1Nc1nc(Nc2cccc(CS(C)(=O)=O)c2)ncc1C.O=CO
Reply: 97.9%

* * *

- Tested on: TRPM6
- RECORDED_CONDITIONS: concentration: 1 μM,replicates: in singlicate; n = 1
Readings of %Inh for the listed compounds
Give a bare numeral; the unit % is implied.

Ask: Please list %Inh recorded for the compound COC(=O)c1cccc(NC(=O)NC2CCN(c3ccnc(NCc4ccc(F)cc4)n3)CC2)c1 [GSK1379860]
Reply: 0

Ask: Please list %Inh recorded for the compound CCN1CCN(CCCC(=O)Nc2n[nH]c3nc(-c4ccc(O)cc4)c(Br)cc23)CC1 [SB-731579]
Reply: 0

Ask: Please list %Inh recorded for the compound COc1cc2ncn(-c3cc(OCC4CCCCC4)c(C(N)=O)s3)c2cc1OC [GSK204559]
Reply: 13

Ask: Please list %Inh recorded for the compound CCNCC(Cc1ccccc1)NC(=O)c1cc(Br)c(-c2ccnc3[nH]ccc23)s1.Cl.Cl (centres unmarked) [GSK1383280]
Reply: 8

Ask: Please list %Inh recorded for the compound CCn1c(-c2nonc2N)nc2cncc(Br)c21 [SB-738004]
Reply: 0

Ask: Please list %Inh recorded for the compound O=C(Nc1cccc(C(F)(F)F)c1)c1cccc(Oc2ccc3nccn3n2)c1
Reply: 0

Ask: Please list %Inh recorded for the compound N#Cc1cccc(C(=O)NC2CCN(c3ccnc(Nc4ccc(F)cc4)n3)C2)c1 (centres unmarked) [GSK1379708]
Reply: 0

* * *

- Tested on: JNK2
- Construct: gene MAPK9
- RECORDED_CONDITIONS: concentration: 1 μM,replicates: in singlicate; n = 1
ENDPOINT_LABEL: %Inh (%)
Give a bare numeral; the unit % is implied.

>>> print(df.to_string())
                                   compound  value_units  value_measured
0      Cc1cccc(-c2nc(Nc3ccncc3)c3sccc3n2)n1            %              85
1  COc1cccc(OC)c1C(=O)Nc1cccc(-c2nn3ccccc3c2-c2ccnc(Nc3cccc(F)c3)n2)c1            %               0
2            CCn1c(-c2nonc2N)nc2cncc(Br)c21            %               0
3  OCCn1cc(-c2cnc3nnn(Cc4ccc5ncccc5c4)c3n2)cn1            %               0
4  Cn1ccc2ncnc(Oc3ccc(NC(=O)Nc4ccnc(C(F)(F)F)c4)c(Cl)c3)c21            %               0

Ask: Please list %Inh recorded for the compound CSc1nccc(-c2c(-c3ccc(F)cc3)ncn2CCCN2CCOCC2)n1.Cl
Reply: 45

Ask: Please list %Inh recorded for the compound CC(C(=O)NC1CCN(c2ccnc(Nc3ccc(F)cc3)n2)C1)c1ccc(Cl)cc1 (stereo not drawn)
Reply: 0

Ask: Please list %Inh recorded for the compound O=C(Nc1cccc(Oc2ccc3nccn3n2)c1)Nc1cccc(C(F)(F)F)c1
Reply: 0

Ask: Please list %Inh recorded for the compound CCN1CCN(CCCC(=O)Nc2n[nH]c3nc(-c4ccc(O)cc4)c(Br)cc23)CC1
Reply: 38

* * *

- Test system: BMPR1A
- RECORDED_CONDITIONS: concentration: 1 μM,replicates: in singlicate; n = 1
Readings of %Inh for the listed compounds
Give a bare numeral; the unit % is implied.

Use these answered entries as a reference point.
In [3]: df
Out[3]:
                                   compound  value_measured
0  c1ccc(Oc2ccc(Nc3ccnc4ccc(-c5ccccn5)cc34)cc2)cc1              11
1  COc1ccc(Nc2nccc(N3CCC(NC(=O)c4cccc(C#N)c4)C3)n2)cc1 (stereo not drawn)               6
2  COc1cccc(C2=C(Nc3cccc(Cl)c3)C(=O)NC2=O)c1               0
3     O=C(Nc1n[nH]c2cc(-c3ccco3)ccc12)C1CC1               0

Ask: Please list %Inh recorded for the compound Cn1ccc2ncnc(Oc3ccc(NC(=O)Nc4cc(C(C)(C)C)on4)c(Cl)c3)c21
Reply: 7

Ask: Please list %Inh recorded for the compound C[C@@H]1CNc2c(sc3ccc4nc(-c5ccncc5)ccc4c23)C(=O)N1
Reply: 12

* * *

- System: MYLK4
- RECORDED_CONDITIONS: concentration: 1 μM,replicates: in singlicate; n = 1
ENDPOINT_LABEL: %Inh
Units required after the number.

>>> print(df.to_string())
                  compound_structure_string  value_measured
0  C[C@@H]1CNc2c(sc3ccc4nc(-c5ccncc5)ccc4c23)C(=O)N1             11%

Ask: Please list %Inh recorded for the compound c1ccc(Oc2ccc(Nc3ccnc4ccc(-c5ccccn5)cc34)cc2)cc1
Reply: 4%

Ask: Please list %Inh recorded for the compound OCCn1cc(-c2cnc3nnn(Cc4ccc5ncccc5c4)c3n2)cn1
Reply: 0%

Ask: Please list %Inh recorded for the compound Cc1ccc(C(=O)Nc2ccc(Oc3ccc4nc(NC(=O)C5CC5)cn4c3)c(F)c2)c(=O)n1-c1ccccc1
Reply: 0%
